A collection of molecules and their measured pIC50
# Target Entity: human recombinant ROCK II (Homo sapiens, UniProt O75116)
# Construct: recombinant human ROCK-II residues 11-552; His6 (N)
# Sequence (O75116 11-552): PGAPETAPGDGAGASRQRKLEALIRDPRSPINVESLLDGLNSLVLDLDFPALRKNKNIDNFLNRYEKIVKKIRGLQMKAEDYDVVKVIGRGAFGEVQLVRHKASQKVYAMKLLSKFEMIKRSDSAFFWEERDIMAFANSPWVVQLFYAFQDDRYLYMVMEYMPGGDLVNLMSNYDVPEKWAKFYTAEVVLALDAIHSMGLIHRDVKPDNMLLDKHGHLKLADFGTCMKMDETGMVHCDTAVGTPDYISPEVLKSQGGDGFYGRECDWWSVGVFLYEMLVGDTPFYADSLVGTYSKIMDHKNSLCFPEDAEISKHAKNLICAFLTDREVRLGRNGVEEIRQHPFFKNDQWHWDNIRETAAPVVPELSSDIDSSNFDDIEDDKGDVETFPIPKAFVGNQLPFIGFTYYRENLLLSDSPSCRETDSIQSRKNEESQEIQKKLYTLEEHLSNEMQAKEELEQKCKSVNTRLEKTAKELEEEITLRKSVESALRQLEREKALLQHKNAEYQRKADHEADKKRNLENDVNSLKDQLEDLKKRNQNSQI
# Assay Overview: Determination of Rho kinase inhibition (ROCK II, Caliper peptide phosphorylation assay)
# Applied Conditions: respective form (salt or free base) as obtained in the examples, 60 min at 32° C.
pIC50: −log10 of the molar value.

Here is how some molecules turned out for pIC50.
molecule="NC(C1CC1)[C@]1(CC2CCOCC2)CC[C@H](Oc2cc3cc[nH]c(=O)c3cc2Cl)CC1 (stereo partly shown) [Example 68]" target_entity="human recombinant ROCK II (Homo sapiens, UniProt O75116)" test_value="≥ 8.00"
molecule="CCC(NCC(C)C)[C@]1(CC)CC[C@H](Oc2cc3cc[nH]c(=O)c3cc2Cl)CC1 (stereo partly shown) [Example 87]" target_entity="human recombinant ROCK II (Homo sapiens, UniProt O75116)" test_value="6.00 to 7.00"
molecule="CCC(N)[C@]1(OC)CC[C@@H](Oc2cc3cc[nH]c(=O)c3cc2Cl)CC1 (stereo partly shown) [Example 59]" target_entity="human recombinant ROCK II (Homo sapiens, UniProt O75116)" test_value="7.00 to 8.00"

Now let's try a different one.
INPUT: Supply recorded pIC50 for CCC(N)[C@]1(C2CCCCC2)CC[C@H](Oc2cc3cc[nH]c(=O)c3cc2Cl)CC1 (stereo partly shown) [Example 65] here.
OUTPUT: 7.00 to 8.00

* * *

# Target Entity: recombinant human PKA (Homo sapiens, UniProt P17612)
# Construct: recombinant human PKA (residues 1-351, N-terminal His-tag); His-tag (N); purchased Invitrogen, Karlsruhe, Germany
# Assay Overview: Determination of Protein Kinase A inhibition (selectivity)
# Type: biochemical
# Applied Conditions: from IC50 values
Reported Property: Selectivity against PKA

Here is how some molecules turned out for Selectivity against PKA.
molecule="CCC(N)C1(CC)CCC(Oc2cc3cc[nH]c(=O)c3cc2Cl)CC1 (single isomer, unassigned) [Example 107]" reported_property="Selectivity against PKA" test_value=">1000 fold"
molecule="CC[C@]1(C(N)CF)CC[C@H](Oc2cc3cc[nH]c(=O)c3cc2Cl)CC1 (some centres unmarked) [Example 96]" reported_property="Selectivity against PKA" test_value=">300 fold"
molecule="CCC(N)[C@]1(CC)CC[C@H](Oc2cc3cc[nH]c(=O)c3cc2C)CC1 (some centres unmarked) [Example 52]" reported_property="Selectivity against PKA" test_value=">100 fold"
molecule="CCC(N)C1(CC(C)C)CCC(Oc2cc3cc[nH]c(=O)c3cc2Cl)CC1 (single isomer, unassigned) [Example 28]" reported_property="Selectivity against PKA" test_value=">10 fold"
molecule="CCCC(N)[C@]1(C)CC[C@H](Oc2cc3cc[nH]c(=O)c3cc2Cl)CC1 (some centres unmarked) [Example 62]" reported_property="Selectivity against PKA" test_value=">1000 fold"
molecule="CCC(N)[C@]1(OC)CC[C@H](Oc2cc3cc[nH]c(=O)c3cc2Cl)CC1 (some centres unmarked) [Example 58]" reported_property="Selectivity against PKA" test_value=">300 fold"
molecule="CCCC1(C(N)C2CC2)CCC(Oc2cc3cc[nH]c(=O)c3cc2Cl)CC1 (single isomer, unassigned) [Example 6]" reported_property="Selectivity against PKA" test_value=">1000 fold"

Now let's try a different one.
INPUT: // fetch Selectivity against PKA for CCCC[C@]1(C(N)CC)CC[C@@H](Oc2cc3cc[nH]c(=O)c3cc2Cl)CC1 (some centres unmarked) [Example 38] ; system: recombinant human PKA (Homo sapiens, UniProt P17612)
OUTPUT: >1000 fold

Ref: patent US8399482B2
